These data points were gathered from PubChem BioAssay (NCI).

System: ACHN renal
assay comment: NCI tumour cell line growth inhibition, 48 h; in the data active means GI50 below about 0.43 µM; inactive means the rest
Please reply with one of these outcomes: active, inactive

# outcome recorded in this test, key = COc1cc2ncnc(Nc3ccc(Oc4ccnc(C)c4)c(C)c3)c2cc1NC(=O)CC1CCSS1 (centres undefined)
inactive

Could you kindly confirm the outcome this assay logged for "COc1ccc(S(=O)(=O)Nc2c(/C=C\c3cc(OC)c(OC)c(OC)c3)ccc(OC)c2O)cc1" ?
active

For "O=C(Nc1cc(Cl)ccc1O)c1cccc(Nc2ccnc(C(F)(F)F)c2)c1" , what call appears in the results of this test?
inactive

Assay outcome for "c1ccc(Oc2ccc(Nc3ncc(-c4ccccc4)o3)cc2)cc1" : what was it?
inactive

// outcome(item) with item = "Clc1cccc(CNc2c3ccccc3nc3ccccc23)c1"
inactive

Would you mind telling me which call this test gave "COc1ccc(C(=O)c2cc3c(N)c(C(=O)Nc4cccc(Br)c4C)sc3nc2C)cc1" ?
active

Which outcome was assigned to "C/C=C/C(=O)[O-].C/C=C/C(=O)[O-].N.N.N.N.[Co+3].[O-][Cl+3]([O-])([O-])[O-]" in this test?
inactive

Test call for this compound, please: "CNC(=O)c1c(F)cccc1Nc1nc(Nc2cc3c(cc2OC)CCN3C(=O)CN(C)C)nc2[nH]ccc12"
inactive

Recorded test call requested for "COc1cc2c3c(n(CCCNCCCNCCN)c(=O)c2cc1OC)-c1cc2c(cc1C3=O)OCO2"
inactive

* * *

Here the recorded TGI is given for each entry.
Tested on: UACC-257 melanoma
assay comment: NCI tumour cell line growth inhibition, 48 h

Below, each entry is followed by its recorded TGI result.
CCOC(=O)c1[nH]c2cc(OC)c(OC)cc2c1CN(C)C	> 100 µM
COS(C)(=O)=O	> 2 µM
Cc1ccc(-c2nc(-c3nccc4ccccc34)oc2-c2ccccc2)cc1	> 100 µM
COc1ccc(N2C(=O)/C(=C\c3ccccc3)SC2c2cc(OC)c(OC)c(OC)c2)cc1 (configuration not stated)	> 100 µM
O=C1C=C2CCCC2C(C(=O)O)(C(=O)O)C1 (configuration not stated)	> 100 µM
COc1ccc(O)cc1C(O)c1ccccc1 (configuration not stated)	> 100 µM

Please supply the value of reported TGI for the item O=CC1C(Cl)=Nc2nc3ccccc3n2C1c1ccccc1 (configuration not stated)
58.2 µM

Give recorded TGI. "[N-]=[N+]=NCCCn1c2c(c3ccc([N+](=O)[O-])cc3c1=O)C(=O)c1cc(-c3ccccc3)ccc1-2"
> 100 µM

Answer with the recorded TGI of "COc1cc2c(oc(=O)c3cc4cc([Si](C)(C)C)oc4c(OC)c32)c2cccc(O)c12" only.
> 100 µM

Please report TGI for the following compound: "Cc1ccc(Cl)c(NS(=O)(=O)c2ccc(-c3cnc(C4CC4)o3)cc2)c1"
50.7 µM

Tell me measured TGI for "CC(=O)/C(Br)=C/c1ccc(Br)o1" please.
19.2 µM

Identify measured TGI associated with "CCCc1nc(Cl)c(Cl)c(Cl)n1"
> 100 µM

Respond only with TGI recorded for "Nc1nc(Cl)c2ncn(Cc3cccc(CCl)c3)c2n1"
20.7 µM

Specify measured TGI for "O=C1c2ccccc2C(=O)c2c(NC(=O)C3CC3)ccc(NC(=O)C3CC3)c21" .
> 100 µM

Recall and state the measured TGI for "O=C(Nc1cc(Cl)ccc1O)c1ccccc1Nc1ccnc(C(F)(F)F)c1" .
8.5 µM

Give TGI for the following compound: "CN(C)c1ccc(/C=N/c2nc3cc4sc(/N=C/c5ccc(N(C)C)cc5)nc4cc3s2)cc1"
> 100 µM

* * *

Test system: NCI-H226 lung
assay comment: NCI tumour cell line growth inhibition, 48 h
Returns one of yes (1) or no (0); yes (1) when TGI is >= 20 µM.

O=C(/C=C/c1ccccn1)c1ccc(OCc2nnc(-c3ccc(Cl)cc3)o2)cc1	no (0)
CC1(C)C(=O)C(C)(C)C1=NNC(N)=S	yes (1)
CC1=CP(=O)(c2ccccc2)C=C(C)C1=C(Cl)Cl (stereo unspecified)	no (0)
OCCCCn1cc(Cn2ncc3c(NCc4ccccc4)ncnc32)nn1	yes (1)
CCS(=O)c1c2cc(OC)ccc2nc2ccc(OC)cc12 (stereo unspecified)	yes (1)

Textbook exercise: given the entry "CS(=O)(=O)c1cccc(Nc2ncc3cc(-c4ccccc4Cl)ccc3n2)c1" , state whether its TGI is greater than or equal to 20 µM.
yes (1)

Please indicate if the recorded TGI for "O=C(CCC(=O)Nc1cccc(C(F)(F)F)c1)CC(=O)c1ccc2ccccc2c1" meets or exceeds 20 µM.
yes (1)

Tell me whether TGI is at least 20 µM here: CSc1ccc(NC(=O)C2c3[nH]c4ccccc4c3C3CCC(C(C)(C)C)CC3C2C(=O)O)cc1 (stereo unspecified)
yes (1)

Given the entry "CC1=NN2C(c3ccc([N+](=O)[O-])cc3)=CSC2=NC(C)(C)C1" , answer whether its TGI meets or surpasses 20 µM.
yes (1)

Form field: TGI at least 20 µM? Entry: "Cc1ccc(Cl)c(NS(=O)(=O)c2ccc(-c3cnc(C4CC4)o3)cc2)c1"
yes (1)

Identify whether the reported TGI of the following molecule is 20 µM or greater: CC1C[C@]2(C[C@@H](C)C(=O)O2)OC2CC3(C)C4CCC5C(C)(C)OC(=O)CC[C@@]56C[C@@]46CC[C@]3(C)C12 (stereo partly specified)
yes (1)

Hi team, for "N=C(N)c1ccc(-c2ccc(-c3ccc4ccccc4c3)s2)s1" , is the recorded TGI at or above 20 µM?
yes (1)

Identify whether the reported TGI of the following molecule is 20 µM or greater: CC(C)(C)OC(=O)[C@@H]1ON2O[C@H](OC3CCCC3(c3ccccc3)c3ccccc3)C[C@H]3OC(=O)[C@@H]1[C@H]32 (stereo partly specified)
yes (1)

Assess whether reported TGI for COC1=C2CC(C)CC(OC)C(OC(=O)CN)[C@H](C)/C=C(\C)C(OC(N)=O)C(OC)/C=C\C=C(/C)C(=O)NC(=CC1=O)C2=O (stereo partly specified) sits at 20 µM or higher.
yes (1)

Identify whether the reported TGI of the following molecule is 20 µM or greater: "CC(=O)Nc1cc2cc(NS(=O)(=O)c3ccc(Cl)c(Cl)c3)ccc2oc1=O"
yes (1)

Record CN(C)CCOc1cc2c(c3ccccc13)-c1ccccc1C2O (stereo unspecified) ; criterion: TGI no lower than 20 µM. Met?
yes (1)

hey, is TGI for this one >= 20 µM? CCOc1ccc(C(C[N+](=O)[O-])Sc2ccccc2N)cc1 (stereo unspecified)
no (0)

Could you tell me if the measured TGI of "O=C(Nc1cc(Cl)ccc1O)c1ccccc1Nc1ccnc(C(F)(F)F)c1" reaches 20 µM or more?
no (0)

* * *

System: SK-MEL-5 melanoma
assay comment: NCI tumour cell line growth inhibition, 48 h
experimental endpoint: GI50

Consider the molecule "COc1cc(-c2nc3ccccc3o2)cc(CN2CCCCC2)c1O" and give its recorded GI50.
1090 nM

Name the recorded GI50 of the item CC1=C(C(=O)Nc2ccc(F)c(Cl)c2)C(c2cccc(Oc3ccccc3)c2)NC(=S)N1 (stereo not given) in your answer.
10200 nM

Identify measured GI50 corresponding to "CCCCOc1ccc(/C=N/Nc2cc(C)nc3ccc(Br)cc23)cc1"
1680 nM

Entry "O=C(Nc1cc(Cl)ccc1O)c1ccccc1Nc1ccnc(C(F)(F)F)c1" needs its GI50 filled in; supply it.
2100 nM

Complete the entry with GI50 for "CCOC(=O)c1c(C)nc2c(c1N)/C(=C/c1ccccn1)C(=O)N2Cc1ccccc1"
950 nM

* * *

Catalogue of GI50 readings, one per entry.
Test system: MDA-MB-231 breast
assay comment: NCI tumour cell line growth inhibition, 48 h

Recorded GI50, per entry:
Cc1ccc(Cl)c(NS(=O)(=O)c2ccc(-c3cnc(C4CC4)o3)cc2)c1	651 nM
N=C(N)c1ccc(-c2ccc(-c3ccc4ccccc4c3)s2)s1	1850 nM

For the next question, use this compound.
Return value of GI50 for input "COc1cc(-c2nc3ccccc3o2)cc(CN2CCCCC2)c1O" , no commentary.
12200 nM

* * *

Measured TGI, listed per entry for reference.
Test system: DU-145 prostate
assay comment: NCI tumour cell line growth inhibition, 48 h

// fetch TGI given entry CC(C)(C)OC(=O)[C@@H]1ON2O[C@H](OC3CCCC3(c3ccccc3)c3ccccc3)C[C@H]3OC(=O)[C@@H]1[C@H]32 (stereo partly specified)
> 100 µM

Report TGI for "CCCCCCCCCCNCCSS(=O)(=O)O"
3.28 µM

Give me measured TGI, please, for this compound: "Oc1[nH]c2ccccc2c1/C=c1/ccc2c(c1)N=C(c1ccc(C(F)(F)F)cc1)N=2"
16 µM

State, in one line, measured TGI of "CN(C)Cc1ccc(NC(=O)c2cncc(C#Cc3cnc(N)c4ncccc34)c2)cc1F"
3.32 µM

Return TGI for the following compound: "c1ccc(-c2n(Cc3ccc4ccccc4c3)c3ccccc3[n+]2Cc2ccc3ccccc3c2)cc1"
1.64 µM

Query TGI for "c1ccc(Cn2c(-c3ccc(-c4ccccc4)cc3)cc3ccccc32)cc1"
> 100 µM

Return the recorded TGI value; entry: "COc1cc(-c2nc3ccccc3o2)cc(CN2CCCCC2)c1O"
3.33 µM

Given the compound NC(Cc1c[nH]c2ccc([N+](=O)[O-])cc12)C(=O)O (stereo unspecified) , write its reported TGI.
> 100 µM

Return the recorded TGI value; entry: Cc1ccc(S(=O)(=O)N/N=C2\CCC3(O)CC2(C)CCC2C3CC2(C)C)cc1 (stereo unspecified)
> 100 µM

Tell us which TGI value is on record for "S=C(N/N=C/c1ccccn1)N1CC2CCC(CC2)C1"
12 µM

Supply TGI value. Item: "COc1cc2c(c(OC)c1OC)-c1ccc(SC)c(=O)cc1[C@@H](NC(=O)C(F)(F)F)CC2"
> 100 µM

Supply measured TGI of "CS(=O)(=O)c1cccc(Nc2ncc3cc(-c4ccccc4Cl)ccc3n2)c1" in your reply.
> 33.3 µM

Return value of TGI for input OC1CCCC2CCC[N-]C12.OC1CCCC2CCC[N-]C12.[O]=[V][OH] (stereo unspecified) , no commentary.
> 100 µM

Look up TGI of CC(C)OC(=O)[C@H]1ON2O[C@H](O[C@@H]3CCCC[C@H]3c3ccccc3)C([Si](C)(C)c3ccccc3)[C@H]3OC(=O)[C@@H]1C32 (stereo partly specified) and report it.
> 100 µM

Provide one value: measured TGI of "CCN(CC)CCN1c2nc3ccccc3cc2Sc2cc3ccccc3nc21"
11.3 µM

Return the recorded TGI value; entry: "COS(C)(=O)=O"
> 2 µM

Using the record for "Cn1c(=O)c(Oc2ccc(F)cc2F)cc2cnc(N[C@@H]3CCOC3)nc21" , state its measured TGI.
> 25 µM

Given "Cc1nc2sc3c(N)ncnc3c2c(C)c1C" , respond with its TGI.
> 25 µM
